Biological target: C-C chemokine receptor type 1 (Homo sapiens)
Sequence (P32246 whole entry): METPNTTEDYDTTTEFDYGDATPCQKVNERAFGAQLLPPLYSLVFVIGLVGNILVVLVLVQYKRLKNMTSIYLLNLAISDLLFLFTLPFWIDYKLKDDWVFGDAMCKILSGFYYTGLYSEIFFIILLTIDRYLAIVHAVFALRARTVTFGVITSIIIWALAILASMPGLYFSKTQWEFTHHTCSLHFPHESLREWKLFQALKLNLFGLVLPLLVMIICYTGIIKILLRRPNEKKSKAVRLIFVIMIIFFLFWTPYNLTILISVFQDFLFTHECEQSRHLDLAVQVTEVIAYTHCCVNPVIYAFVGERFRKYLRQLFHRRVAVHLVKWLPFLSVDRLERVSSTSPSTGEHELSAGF
Hi, quick share: literature IC50 data for C-C chemokine receptor type 1 (Homo sapiens), several sources combined.

Worked cases, answers included:
COMPOUND: NC(=O)[C@H](CCO)C[C@H](O)[C@H](Cc1ccccc1)NC(=O)c1cnc2ccccc2n1
IC50: 4.6 µM
//
COMPOUND: O=C(NCc1cc(C(F)(F)F)cc(C(F)(F)F)c1)[C@@H](NCCN1CCCCC1)c1ccsc1
IC50: > 1 µM

Short answer for `CCCC[C@H]1CN(CC2CCOCC2)C(=O)OC12CCN(C1(C)CCN(C(=O)c3c(C)ncnc3C)CC1)CC2` : IC50 was > 50 µM

----------
Hi, quick share: literature pIC50 data for C-C chemokine receptor type 1 (Homo sapiens), several sources combined.
pIC50: −log10 of the molar value.
REPORTED_METRIC: pIC50

COMPOUND: NC(=O)C(C[C@H](O)[C@H](Cc1ccccc1)NC(=O)c1cnc2ccccc2n1)C1(O)CCCCC1 (stereo partly drawn)
pIC50: 7.27

A: CC(C)(F)CC[C@H](C[C@H](O)[C@H](Cc1ccccc1)NC(=O)c1cnc2ccccc2n1)C(N)=O
B: CNC(=O)[C@H](CC(C)C)C[C@H](O)[C@H](Cc1ccccc1)NC(=O)c1cc2ccccc2nc1O
C: Nc1nc2c(c(N3CCNCC3)n1)CCC1=C2[C@@H]2CCCC[C@@H]2O1 (relative stereo)
D: CN(C)CC[C@H](C[C@H](O)[C@H](Cc1ccccc1)NC(=O)c1cnc2ccccc2n1)C(N)=O
query: Task field, ranking: reported pIC50, descending order. Record the ranking as a list of labels in the requested order.
result: C, A, B, D

a: CC(C)(F)CCC(C[C@H](O)[C@H](Cc1ccccc1)NC(=O)c1cnc2ccccc2n1)C(=O)NCc1ccccc1 (stereo partly drawn)
b: O=C(N[C@@H](Cc1ccccc1)[C@@H](O)CC(C(=O)NO)C1CCC(F)(F)CC1)c1cnc2ccccc2n1 (stereo partly drawn)
query: Select one. Lower pIC50: a or b Give the label of your selection.
result: a
(a: 6.07, b: 8.15)

----------
Sequence of the target: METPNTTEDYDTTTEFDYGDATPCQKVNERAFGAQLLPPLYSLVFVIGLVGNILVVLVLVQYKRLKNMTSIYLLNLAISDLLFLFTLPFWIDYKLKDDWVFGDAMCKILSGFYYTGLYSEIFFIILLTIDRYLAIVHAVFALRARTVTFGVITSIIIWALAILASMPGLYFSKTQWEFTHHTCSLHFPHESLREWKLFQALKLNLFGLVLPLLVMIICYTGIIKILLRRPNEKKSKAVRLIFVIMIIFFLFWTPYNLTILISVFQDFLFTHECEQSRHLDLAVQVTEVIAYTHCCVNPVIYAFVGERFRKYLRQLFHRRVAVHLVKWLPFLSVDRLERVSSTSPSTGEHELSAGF
pIC50: −log10 of the molar value.
Hi, quick share: literature pIC50 data for the protein given by its sequence, several sources combined.

Worked cases, answers included:
COMPOUND: CNC(=O)[C@H](CC(C)C)C[C@H](O)[C@H](Cc1ccc(OC)cc1)NC(=O)c1cnc2ccccc2n1
SYSTEM_TESTED: the protein given by its sequence
pIC50: 5.54
--
COMPOUND: C=CCN(C(=O)OCc1ccccc1)C1CCN(CCC(C)(Cn2cnc3ccccc32)c2ccccc2)CC1 (centres undefined)
SYSTEM_TESTED: the protein given by its sequence
pIC50: < 6.00
--
COMPOUND: CNC(=O)[C@H](CC(C)C)C[C@H](O)[C@H](Cc1ccccc1)NC(=O)c1cccc2cccnc12
SYSTEM_TESTED: the protein given by its sequence
pIC50: < 4.49

# CCN(C(=O)OCc1ccccc1)C1CCN(CCC(C)(CN2C(=O)N[C@H](Cc3c[nH]c4ccccc34)C2=O)c2ccccc2)CC1 (some centres undefined) with the protein given by its sequence: pIC50 is < 6.00

----------
Hi, quick share: literature IC50 data for C-C chemokine receptor type 1 (Homo sapiens), several sources combined.

COMPOUND: CNC(=O)[C@H](CC(C)C)C[C@H](O)[C@H](Cc1ccccc1)NC(=O)c1ccc2ccccc2c1
IC50: 10.3 µM

# C=CCN(C(=O)OCc1ccccc1)C1CCN(CCC(C)(CN2C(=O)N[C@H](Cc3c[nH]c4ccccc34)C2=O)c2cccc(Cl)c2)CC1 (some centres undefined) with C-C chemokine receptor type 1 (Homo sapiens): IC50 is > 1 µM

# CC(C)(O)CCC(C[C@H](O)[C@H](Cc1ccc(F)cc1)NC(=O)c1cnc2ccccc2n1)C(N)=O (some centres undefined) with C-C chemokine receptor type 1 (Homo sapiens): IC50 is > 25 µM

# C=CCN(C(=O)OCc1ccccc1)C1CCN(CCC(Cn2cnc3ccccc32)c2ccccc2)CC1 (centres undefined) with C-C chemokine receptor type 1 (Homo sapiens): IC50 is > 1 µM
